Molecular target: T1, HLA-A*02:01 (peptide-receptive MHC class I molecule of the UV-ligand exchange assay) (human)
T1 construct: MHC monomer first loaded with a UV-sensitive peptide (not identified) that is cleaved by UV light and exchanged for the test peptide; captured on streptavidin plates
Assay: UV-ligand exchange, anti-b2m ELISA; peptide exchange yield grade (>=10% = +; >=20% = ++; >=50 = +++; >=75% = ++++)

{"binder": "VVVTGLTLV (synthetic peptide; source gene ARHGDIA) [VVVTGLTLV (SEQ ID NO: 53)]", "peptide exchange yield": "20 to 50%"}
{"binder": "FLDNGPKTI (synthetic peptide; source gene EIF4G2) [FLDNGPKTI (SEQ ID NO: 87)]", "peptide exchange yield": "50 to 75%"}
{"binder": "ALLDGGSEAYWRV (synthetic peptide; source gene FAM83A) [ALLDGGSEAYWRV (SEQ ID NO: 8)]", "peptide exchange yield": "50 to 75%"}
{"binder": "SLADSLYNL (synthetic peptide; source gene CAMSAP2) [SLADSLYNL (SEQ ID NO: 89)]", "peptide exchange yield": "20 to 50%"}
{"binder": "YQDLLNVKM (synthetic peptide; source genes DES, NEFM, NEFH, NEFL, VIM, INA) [YQDLLNVKM (SEQ ID NO: 54)]", "peptide exchange yield": "50 to 75%"}
{"binder": "SLAESLDQA (synthetic peptide; source gene DIS3) [SLAESLDQA (SEQ ID NO: 84)]", "peptide exchange yield": "50 to 75%"}
{"binder": "ILASLATSV (synthetic peptide; source gene TUBGCP2) [ILASLATSV (SEQ ID NO: 74)]", "peptide exchange yield": "50 to 75%"}
{"binder": "KLNDTYVNV (synthetic peptide; source gene TMEM194A) [KLNDTYVNV (SEQ ID NO: 22)]", "peptide exchange yield": "50 to 75%"}
{"binder": "FLLDQVQLGL (synthetic peptide; source gene TSPAN10) [FLLDQVQLGL (SEQ ID NO: 18)]", "peptide exchange yield": "50 to 75%"}
{"binder": "SMNGGVFAV (synthetic peptide; source gene SLC7A11) [SMNGGVFAV (SEQ ID NO: 67)]", "peptide exchange yield": "20 to 50%"}
{"binder": "GLTDVIRDV (synthetic peptide; source gene FBXL18) [GLTDVIRDV (SEQ ID NO: 64)]", "peptide exchange yield": "≥ 75%"}
{"binder": "LLDEKVQSV (synthetic peptide; source gene TSHZ3) [LLDEKVQSV (SEQ ID NO: 66)]", "peptide exchange yield": "50 to 75%"}
{"binder": "ALADGVVSQA (synthetic peptide; source gene GPKOW) [ALADGVVSQA (SEQ ID NO: 83)]", "peptide exchange yield": "50 to 75%"}
{"binder": "TQTAVITRI (synthetic peptide; source gene FAM83D) [TQTAVITRI (SEQ ID NO: 42)]", "peptide exchange yield": "10 to 20%"}
{"binder": "ALYEYQPLQI (synthetic peptide; source gene MNAT1) [ALYEYQPLQI (SEQ ID NO: 62)]", "peptide exchange yield": "20 to 50%"}
{"binder": "FLPPAQVTV (synthetic peptide; source gene NOL6) [FLPPAQVTV (SEQ ID NO: 72)]", "peptide exchange yield": "20 to 50%"}
